Taken from the array DNA melting data of Ke et al. (doi:10.1101/2024.01.08.574731).

# reported Tm; entries follow
procedure text: melting temperature; fluorescence melt of hairpins on a sequencing array, two-state fit, raised by 9.35 °C to match UV melts
condition notes: sodium 0.088 M
Answer by giving the amount and then stating its unit.

Would you please look over these solved cases?
| monomer sequence | reported value |
| --- | --- |
| GATCAAGTTATTGATC ((((((....)))))) | 49.8 °C |
| GTTGGCGAAAGCCCAAAC ((((((....)))..))) | 24.8 °C |
| GATCTCCGCGAGATC ((((((...)))))) | 55.4 °C |
| GATCTTGTAGAAGATC ((((((....)))))) | 46.4 °C |
| GCCACGCGAAAGCTAGGC (((..((....))..))) | 52.1 °C |
| GATCCTTTGAGGATC ((((((...)))))) | 54.2 °C |
| GCGTTAGGAAACCAACGC (((((.(....).))))) | 49.8 °C |

Next sequence, Tm to be filled in.
INPUT: Which Tm value belongs to GACCACGAAAGTGTAGTC ((((((....)))..))) ?
OUTPUT: 41.1 °C

----------
procedure text: folding enthalpy; higher = less favourable; fluorescence melt of hairpins on a sequencing array, two-state fit
condition notes: sodium 0.088 M
measured quantity: folding enthalpy

| monomer sequence | folding enthalpy |
| --- | --- |
| GCGCAAGCGAAAGCTCGC (((..(((....)))))) | -12.8 kcal/mol |
| GATCTTACCGAAGATC ((((((....)))))) | -33 kcal/mol |
| GGAGACGAAAGTCATTCC ((((((....)))..))) | -12 kcal/mol |
| GCAACAGGAAACTATTGC ((((.((....)).)))) | -19.2 kcal/mol |
| GTTACCGAAAGGTAAAC ((((((....))).))) | -15.7 kcal/mol |

INPUT: Which folding enthalpy value belongs to GGCGGTCCGAAAGGAGCC (((..(((....)))))) ?
OUTPUT: -17.7 kcal/mol

INPUT: Which folding enthalpy value belongs to GCATAGCGAAAGCATTGC (((..((....))..))) ?
OUTPUT: -18.4 kcal/mol

INPUT: Which folding enthalpy value belongs to GGGTCCGGAAACGGATCC ((.((((....)))).)) ?
OUTPUT: -38.1 kcal/mol

INPUT: Which folding enthalpy value belongs to CGCTCGGAAACGAGTGCG ((((((....)))..))) ?
OUTPUT: -15.8 kcal/mol

INPUT: Which folding enthalpy value belongs to GGGTGCGAAAGCATCCC ((((((....))).))) ?
OUTPUT: -18.5 kcal/mol

INPUT: Which folding enthalpy value belongs to GATCCACTCATGGATC ((((((....)))))) ?
OUTPUT: -41.5 kcal/mol

INPUT: Which folding enthalpy value belongs to GCACCGGGAAACCAGTGC ((((.((....)).)))) ?
OUTPUT: -32.1 kcal/mol

INPUT: Which folding enthalpy value belongs to GATCGATACCTCGATC ((((((....)))))) ?
OUTPUT: -35.1 kcal/mol

INPUT: Which folding enthalpy value belongs to GATCCTGGAAACAGGATC (((((((....))))))) ?
OUTPUT: -44.4 kcal/mol

INPUT: Which folding enthalpy value belongs to GATCAGAAATGATC (((((....))))) ?
OUTPUT: -22.5 kcal/mol

----------
procedure text: melting temperature; fluorescence melt of hairpins on a sequencing array, two-state fit, raised by 9.35 °C to match UV melts
condition notes: sodium 0.088 M
# reported Tm; entries follow
Quick note: give the figure in °C, leave out the unit.

| monomer sequence | result unit | reported value |
| --- | --- | --- |
| GCTTGGCGAAAGCCATGC ((.((((....)))).)) | °C | 65.4 |
| GCGTTTGAACGC ((((....)))) | °C | 56.7 |

INPUT: Which Tm value belongs to GATCTGATTACAGATC ((((((....)))))) ?
OUTPUT: 50

----------
procedure text: melting temperature; fluorescence melt of hairpins on a sequencing array, two-state fit, raised by 9.35 °C to match UV melts
condition notes: sodium 0.088 M
// no (0) strictly below 50 °C in Tm; yes (1) otherwise

INPUT: Quick check: does GATCTTATCCAAGATC ((((((....)))))) have Tm greater than or equal to 50 °C?
OUTPUT: no (0)

----------
procedure text: melting temperature; fluorescence melt of hairpins on a sequencing array, two-state fit, raised by 9.35 °C to match UV melts
condition notes: sodium 0.088 M
// NO strictly below 40 °C in Tm; YES otherwise

Examples with answers:
| monomer sequence | category |
| --- | --- |
| GAGCAGCGAAAGCTACTC (((.(((....))).))) | YES |
| GAGTTAGGAAACTAACTC (((((((....))))))) | YES |
| GATCTCCTGGGAGATC ((((((....)))))) | YES |
| GACGCCGAAAGGCGAGTC ((((((....)))..))) | YES |
| GGAATCGAAAGATACTCC ((((((....)))..))) | NO |
| GTAATAGGAAACTATTGC (.(((((....))))).) | NO |
| GCTACGCGAAAGCTAAGC (((..((....))..))) | NO |
| GAGCCAGGAAACCAGCTC ((((..(....)..)))) | NO |

Now consider a different sequence.
INPUT: Quick check: does GGTTACGAAAGTAAGACC ((((((....)))..))) have Tm greater than or equal to 40 °C?
OUTPUT: NO

----------
procedure text: folding enthalpy; higher = less favourable; fluorescence melt of hairpins on a sequencing array, two-state fit
condition notes: sodium 0.088 M
measured quantity: folding enthalpy (kcal/mol)
Quick note: give the figure in kcal/mol, leave out the unit.

| monomer sequence | measured quantity | result unit | reported value |
| --- | --- | --- | --- |
| GGTCGCGAAAGCGTAACC ((((((....)))..))) | folding enthalpy | kcal/mol | -15 |
| GGCAAGCGAAAGCTGCC (((.(((....)))))) | folding enthalpy | kcal/mol | -33.4 |
| GAACGCGAAAGCGCGTTC ((((((....)))..))) | folding enthalpy | kcal/mol | -25.5 |
| GCGGAGACCCGC ((((....)))) | folding enthalpy | kcal/mol | -20.5 |
| GCCTGGCGAAAGCCCTGC ((..(((....)))..)) | folding enthalpy | kcal/mol | -12.2 |
| GAATAACGAAAGTTGTTC (((.(((....))).))) | folding enthalpy | kcal/mol | -31 |
| GTCGGTCGAAAGACGGAC (((.(((....))).))) | folding enthalpy | kcal/mol | -34.8 |
| GTTAAGCGAAAGCTCAAC (((.(((....))).))) | folding enthalpy | kcal/mol | -16.7 |

Next sequence, folding enthalpy to be filled in.
INPUT: Which folding enthalpy value belongs to GTCGATGGAAACATTGGC (.(.(((....))).).) ?
OUTPUT: -29.2

----------
# reported Tm; entries follow
procedure text: melting temperature; fluorescence melt of hairpins on a sequencing array, two-state fit, raised by 9.35 °C to match UV melts
condition notes: sodium 0.088 M
Quick note: give the figure in °C, leave out the unit.

Would you please look over these solved cases?
| monomer sequence | measured quantity | reported value |
| --- | --- | --- |
| GCAACGCGAAAGCTGTGC (((..((....))..))) | Tm | 48.9 |
| GGTTTCCGAAAGGATACC (((.(((....))).))) | Tm | 50.5 |
| GCATAGCGAAAGCATTGC (((..((....))..))) | Tm | 50.7 |

Next sequence, Tm to be filled in.
INPUT: Which Tm value belongs to GTGTGCGAAAGCAATCAC ((((((....)))..))) ?
OUTPUT: 39.9

----------
procedure text: folding enthalpy; higher = less favourable; fluorescence melt of hairpins on a sequencing array, two-state fit
condition notes: sodium 0.088 M
# reported folding enthalpy; entries follow
Quick note: give the figure in kcal/mol, leave out the unit.

| monomer sequence | reported value |
| --- | --- |
| GTATAACCGAAAGGTTAC (((..(((....)))))) | -11.4 |
| GCTTGGGGAAACCTAGGC ((.(.((....)).).)) | -23.5 |

Next sequence, folding enthalpy to be filled in.
INPUT: Which folding enthalpy value belongs to GGGCAGGGAAACCCGCCC ((((.((....)).)))) ?
OUTPUT: -38.2
